System: Trypanosoma cruzi
runDescription: Trypanosoma cruzi phosphomannomutase and mannose-1-phosphate guanylyltransferase assay
Type: functional
Parameters: scale not given: direction of the effect not stated beside the values
condition: 10 µM
readoutLabel: Percent Effect (%)
Dear colleague, please return just the value in %, with no unit written.

> print(dat)
                                   molecule  unit  reportedvalue
1  COc1ncccc1C(=O)N1CCn2c(COCC3CC3)cnc2C1C (stereo not drawn)     %           1.07
2  CCNC(=O)c1ccnc(NCC2COc3cc(OC)ccc3C2)c1 (stereo not drawn)     %          -3.78

Could you now look at the following molecule, please?
Given item CN(C)CC1CN(Cc2ccc3c(c2)OCO3)Cc2nccn2C1 (stereo not drawn) , the value recorded as its Percent Effect is 0.682
